# Tested on: MDA-468 (breast cancer cell)
# assayProcedure: Measurement of cellular proliferation, MDA-468 cells
# Format: cell-based
# particulars: 48 hours, FIGS. 10-39
metricName: Effect on proliferation of MDA-468 cells

c1ccc(C(CN2CCC(COC(c3ccccc3)c3ccccc3)CC2)c2ccccc2)cc1    inhibition
c1ccc(C(CN2CCCCC2)c2ccccc2)cc1    inhibition

* * *

# Test system: PC3 prostate cancer cells
# assayProcedure: Measurement of cellular proliferation, PC3 cells
# Assay type: cell-based, human
# particulars: PC-3, 48 hours; read-out: PROLIFERATION IC50 PC-3
Items are presented alongside their recorded pIC50.
Just the number, please; pIC50 means minus log10 of the concentration in mol/L.

Recorded results for 5 compounds are shown here.
COc1ccc(CCN2CCCC2COC(c2ccccc2)c2ccc(Cl)cc2)cc1 (stereo not shown)    4.77
COc1ccc(CCN2CCC(COC(c3ccccc3)c3ccc(Cl)cc3)CC2)cc1 (stereo not shown)    4.74
COc1ccc(CCN2CCC[C@H]2COC(c2ccccc2)c2ccc(Cl)cc2)cc1 (stereo partly shown)    4.82
COc1ccc(CCN2CCC[C@H]2COC(c2ccc(Cl)cc2)c2ccc(Cl)cc2)cc1    4.72
COc1ccc(CCN2CCCC(COC(c3ccccc3)c3ccc(Cl)cc3)C2)cc1 (stereo not shown)    4.64

Task item: Specify measured pIC50 for COc1ccc(CCCN2CCC[C@H]2COC2c3ccccc3-c3ccccc32)cc1 .
Reply: 4.44

Task item: Identify the reported pIC50 for the following entry. COc1ccc(CCN2CCC(COC(c3ccc(Cl)cc3)c3ccc(Cl)cc3)CC2)cc1
Reply: 4.85
